- Test system: HL-60 (leukemia promyelocytic)
- testDescription: Anticancer activity, MTT assay
- Assay type: cell-based, human
- conditionSet: Homo sapiens, HL-60, 48 h, read-out: Cell culture IC50
Please provide measured IC50 for the entries that follow.
Expressed in µM, but write only the number.

Give IC50 only, for Cc1cc(O)n(C(N)=S)n1 [Compound 1d] , using HL-60 (leukemia promyelocytic) data.
779

Give IC50 only, for CCc1cc(CC)n(C(N)=S)n1 [Compound 1b] , using HL-60 (leukemia promyelocytic) data.
506

Give IC50 only, for Cc1cc(C)n(C(N)=S)n1 [Compound 1a] , using HL-60 (leukemia promyelocytic) data.
584

Give IC50 only, for NC(=S)n1nc(-c2ccccc2)cc1O [Compound 1c] , using HL-60 (leukemia promyelocytic) data.
618

###

This document collects MIC values reported for P. vulgaris ATCC 8427.

Consider the compound "Cc1cc(O)n(C(N)=S)n1" . State its measured MIC.
> 1000 µg/mL

Consider the compound "NC(=S)n1nc(-c2ccccc2)cc1O" . State its measured MIC.
> 1000 µg/mL

Consider the compound "Cc1cc(C)n(C(N)=S)n1" . State its measured MIC.
> 1000 µg/mL

Consider the compound "CCc1cc(CC)n(C(N)=S)n1" . State its measured MIC.
1000 µg/mL

###

Please provide measured MIC for the entries that follow.

Give MIC only, for NC(=S)n1nc(-c2ccccc2)cc1O [Compound 1c] , using E. faecalis ATCC 29212 data.
500 µg/mL

Give MIC only, for CCc1cc(CC)n(C(N)=S)n1 [Compound 1b] , using E. faecalis ATCC 29212 data.
> 1000 µg/mL

Give MIC only, for Cc1cc(C)n(C(N)=S)n1 [Compound 1a] , using E. faecalis ATCC 29212 data.
> 1000 µg/mL

Give MIC only, for Cc1cc(O)n(C(N)=S)n1 [Compound 1d] , using E. faecalis ATCC 29212 data.
250 µg/mL

###

Please provide measured IC50 for the entries that follow.
- Test system: NALM-6 (leukemia lymphoblastic)
- testDescription: Anticancer activity, MTT assay
- Assay type: cell-based, human
- conditionSet: Homo sapiens, NALM-6, 48 h, read-out: Cell culture IC50
Expressed in µM, but write only the number.

Consider the compound "CCc1cc(CC)n(C(N)=S)n1" . State its measured IC50.
469

Consider the compound "Cc1cc(O)n(C(N)=S)n1" . State its measured IC50.
615

Consider the compound "Cc1cc(C)n(C(N)=S)n1" . State its measured IC50.
569

Consider the compound "NC(=S)n1nc(-c2ccccc2)cc1O" . State its measured IC50.
152

###

- Tested on: S. aureus ATCC 29213
- testDescription: MIC and MBC by broth microdilution, subculture on agar
- Format: cell-based, Staphylococcus aureus
- conditionSet: S. aureus ATCC 29213; second line per compound; subculture on agar 24 h, 37 °C
observable: MBC/MFC

Consider the compound Cc1cc(O)n(C(N)=S)n1 [Compound 1d] . State its measured MBC/MFC.
>1000 µg/mL

Consider the compound CCc1cc(CC)n(C(N)=S)n1 [Compound 1b] . State its measured MBC/MFC.
>1000 µg/mL

Consider the compound Cc1cc(C)n(C(N)=S)n1 [Compound 1a] . State its measured MBC/MFC.
>1000 µg/mL

Consider the compound NC(=S)n1nc(-c2ccccc2)cc1O [Compound 1c] . State its measured MBC/MFC.
>1000 µg/mL

Consider the compound Cc1ccc(C(C)C)cc1.Cc1ccc(C(C)C)cc1.[Cl][Ru][Cl].[Cl][Ru][Cl] [Dimer, dichloro(p-cymene)ruthenium(II)dimer, reference compound] . State its measured MBC/MFC.
>1000 µg/mL

Consider the compound Cc1cc(C)n(C(N)=S)n1.Cc1ccc(C(C)C)cc1.[Cl][Ru][Cl] [Compound 2a] . State its measured MBC/MFC.
125 µg/mL
